# test: in vitro
# protocol_conditions: human, hela cells, % viability
measured_attribute: viability at 28.5 h, 10 µM
Please give the number followed by its unit.

CCOC(=O)C1(Cc2cc(-c3ccccc3F)no2)CCNCC1 [CBK284580]    101%
Cc1ccccc1C(c1cnccn1)N(C)C(=O)C1CCN(C(=O)c2ccccc2)CC1 (centres unmarked) [CBK060208]    94.4%

input: What viability at 28.5 h, 10 µM value was documented for this molecule, O=C(NCCN1CCC(O)(c2ccc(F)cc2)CC1)c1ccco1 [CBK283166] ?
output: 99.3%

input: What viability at 28.5 h, 10 µM value was documented for this molecule, CCNC(=O)/N=C(/N)Nc1nc2ccccc2s1 [CBK028890] ?
output: 72.1%

input: What viability at 28.5 h, 10 µM value was documented for this molecule, CN1C(=O)/C(=C2\SC(=S)N(C(Cc3ccccc3)C(=O)O)C2=O)c2ccccc21 (centres unmarked) [CBK263507] ?
output: 99.6%

* * *

This listing pairs compounds with measured viability at 28.5 h, 10 µM.
# test: in vitro
# protocol_conditions: human, hela cells, % viability
Expressed in %, but write only the number.

Look over these answered cases.
O=[N+]([O-])c1ccc2[nH]c3c(c2c1)CCCC3NC1CCN(CCc2ccccc2)CC1 (stereo not drawn) [CBK262874]    77.1
CN1CC=C(/C=C/c2c[nH]c3ccccc23)CC1 [CBK283602]    89.4
COc1ccccc1Oc1nnnn1-c1ccc(C(N)=O)cc1 [CBK267988]    96
O=C(CSc1nnc(-c2ccncc2)[nH]1)c1ccc(O)c(O)c1 [CBK264346]    86.6
COc1ccc(NC(=O)CC2Nc3cccc4cccc(c34)NC2=O)cc1 (stereo not drawn) [CBK267561]    93.1

input: What viability at 28.5 h, 10 µM value was documented for this compound, O=C(O)c1ccc(NC(=O)c2cn(-c3ccccc3)nc2-c2cc3ccccc3oc2=O)cc1 [CBK266432] ?
output: 99.8

input: What viability at 28.5 h, 10 µM value was documented for this compound, O=C(c1ccc2[nH]c(=O)[nH]c2c1)N1CCC2(CCNC2)C1 (stereo not drawn) [CBK156747C] ?
output: 101

input: What viability at 28.5 h, 10 µM value was documented for this compound, NC(=O)c1sc2cc(C(F)(F)F)cnc2c1-c1cccs1 [CBK089891] ?
output: 88.2

input: What viability at 28.5 h, 10 µM value was documented for this compound, CC(C)(Oc1ccc(Cl)cc1)C(=O)Nc1nnc[nH]1 [CBK288220] ?
output: 102

* * *

# test: in vitro
# protocol_conditions: human, hela cells, % viability
measured_attribute: viability at 28.5 h, 10 µM (%)
Expressed in %, but write only the number.

Look over these answered cases.
OCC1CCCN1c1nccnc1-c1cccs1 (centres unmarked)    106
COc1ccccc1N1CCN(CC(CC(=O)Nc2ccccc2)C(=O)O)CC1 (centres unmarked)    88.6
COc1ccc([C@H]2CN(C(=O)c3ccccc3)[C@@H]3CCN(Cc4cccs4)C[C@H]23)cc1    103

input: What viability at 28.5 h, 10 µM value was documented for this compound, CN(CC(=O)Nc1ccccc1N1CCNCC1)C(=O)c1ccccc1 [CBK028287T] ?
output: 99.3

input: What viability at 28.5 h, 10 µM value was documented for this compound, CCOC(=O)c1cnn(C2CCCN(Cc3ccc(C#N)o3)C2)c1 (centres unmarked) ?
output: 116

* * *

This listing pairs compounds with measured viability at 28.5 h, 10 µM.
# test: in vitro
# protocol_conditions: human, hela cells, % viability
Expressed in %, but write only the number.

Cc1cc(NC(=O)C2CCN(CCOc3ccccc3F)CC2)no1    100
O=c1[nH]cnc2c1nc(S)n2C1OC(CO)C(O)C1O (stereo not shown)    96.4
Cc1ccc2c(c1)cc(C)c1nn(CC(=O)NC(C)(C)C)c(=O)n12    87.5
Cc1ccc2ncnc(NCCCCCC(=O)O)c2c1    91.4
O=C1/C(=N\O)c2cc(Cl)ccc2N1Cc1ccccc1    91.5
CCCCSc1nnc(NS(=O)(=O)c2ccc(NC(C)=O)cc2)s1    98.5
Cc1cc2c(cc3c(=O)n(CC(=O)NC4CC4)nc(C)n32)s1    74.3
COc1ccc(-c2cnn(-c3ccc(OC)cc3)n2)cc1    106

input: What viability at 28.5 h, 10 µM value was documented for this compound, CCCc1nc(NC(c2cccc(C)n2)C2CC2)c2cnn(C)c2n1 (stereo not shown) ?
output: 88

input: What viability at 28.5 h, 10 µM value was documented for this compound, Cn1nc(CC(=O)Nc2ccccc2C(=O)O)c2ccccc2c1=O ?
output: 88.9

input: What viability at 28.5 h, 10 µM value was documented for this compound, Nc1ncc(-c2ccc(C(F)(F)F)cc2)c(C2CCCN(C(=O)C3CCCCC3)C2)n1 (stereo not shown) ?
output: 98.9

input: What viability at 28.5 h, 10 µM value was documented for this compound, O=S(=O)(c1cccs1)N1CCCN(Cc2nccs2)CC1 ?
output: 119

input: What viability at 28.5 h, 10 µM value was documented for this compound, O=C(O)C1CCCCC1C(=O)Nc1ccc(S(=O)(=O)N2CCCCC2)cc1 (stereo not shown) ?
output: 109

input: What viability at 28.5 h, 10 µM value was documented for this compound, COc1ccc(Br)cc1S(=O)(=O)Nc1c(C(=O)Nc2ccc(F)cc2)[nH]c2ccccc12 ?
output: 88.2

input: What viability at 28.5 h, 10 µM value was documented for this compound, O=C(N[C@H]1CO[C@H]2[C@@H]1OC[C@@H]2Nc1nccc(-c2cccs2)n1)c1ccccc1 ?
output: 84.5

input: What viability at 28.5 h, 10 µM value was documented for this compound, Cc1ccc(NC(=O)c2cnc3sccn3c2=O)cc1 ?
output: 93.1

input: What viability at 28.5 h, 10 µM value was documented for this compound, COc1ccc(N2CCN(Cc3nc4c(c(=O)n(C)c(=O)n4C)n3C(C)C(C)=O)CC2)cc1 (stereo not shown) ?
output: 88.7

input: What viability at 28.5 h, 10 µM value was documented for this compound, COc1ccc(C2(C(=O)NCc3ccc(Cl)c(Cl)c3)CC2)cc1 ?
output: 98.7

input: What viability at 28.5 h, 10 µM value was documented for this compound, Oc1cccc(-c2nccnc2NCCc2ccccn2)c1 ?
output: 104

* * *

# test: in vitro
# protocol_conditions: human, hela cells, % viability
measured_attribute: viability at 28.5 h, 10 µM (%)
Expressed in %, but write only the number.

Look over these answered cases.
Cc1nc(C(F)(F)F)ccc1C(=O)NCCn1ccnc1C    88.9
CCOC(=O)c1cn(CC2CC2)c2cc(F)c(F)cc2c1=O    98.1
O=C1NC2(CCC(=O)N(Cc3ccccc3)CC2)Oc2ccccc21 (stereo not drawn)    91.6
O=C(NC[C@@H]1CCCN(C(=O)c2cscn2)C1)c1cccs1    85.7
O=C1Nc2ccc(-c3ccsc3)cc2C1(O)O    84.5
O=C1N=C(NC23CC4CC(CC(C4)C2)C3)OC1c1ccccc1 (stereo not drawn)    107
COc1cccc(C(=O)N2CCN(C)C(=O)C2Cc2ccccc2-c2ccccc2)c1OC (stereo not drawn)    109
CCCC(CCC)C(=O)Nc1ccc(NC(=O)c2ccco2)c(C)c1    91.9

input: What viability at 28.5 h, 10 µM value was documented for this compound, COc1ccc([C@@]23CC[C@@H](NC(=O)Nc4ccc(C(C)(C)C)cc4)C[C@@H]2N(C)CC3)cc1OC [CBK036469T] ?
output: 92

* * *

# test: in vitro
# protocol_conditions: human, hela cells, % viability
This listing pairs molecules with measured viability at 28.5 h, 10 µM.
Expressed in %, but write only the number.

input: What viability at 28.5 h, 10 µM value was documented for this molecule, CCCNc1cncc(-c2cccc(F)c2)n1 ?
output: 97.3

input: What viability at 28.5 h, 10 µM value was documented for this molecule, CC(=O)Nc1ccc(S(=O)(=O)Nc2nnc(C(C)(C)C)s2)cc1 ?
output: 100

input: What viability at 28.5 h, 10 µM value was documented for this molecule, CCNC(=O)Nc1ccc2ccc(-c3cccnc3)nc2n1 ?
output: 85

input: What viability at 28.5 h, 10 µM value was documented for this molecule, CCn1c(CN2CCC(c3cc(O)nc(N)n3)C2)nc2c(F)cccc21 (stereo not shown) ?
output: 87.5

* * *

# test: in vitro
# protocol_conditions: human, hela cells, % viability
measured_attribute: viability at 28.5 h, 10 µM (%)
Expressed in %, but write only the number.

Look over these answered cases.
Cc1nccn1CCC(=O)Nc1ccccc1Oc1ccc(F)cc1    91.9
CCCCC(C(=O)O)N1C(=O)c2ccccc2C1=O (centres unmarked)    101
Cc1cccc(C2(O)CCN(CC(O)c3ccc(F)cc3)CC2)c1 (centres unmarked)    96.6
Cc1nc(-c2ccccc2)sc1CNC(=O)C(C)c1ccc([N+](=O)[O-])cc1 (centres unmarked)    98

input: What viability at 28.5 h, 10 µM value was documented for this compound, O=C(c1cc[nH]n1)N1CCCC(c2cc3ccccc3cn2)C1 (centres unmarked) ?
output: 85.2

input: What viability at 28.5 h, 10 µM value was documented for this compound, O=C(O)C1CCCCC1C(=O)N1CCc2ccccc2C1 (centres unmarked) ?
output: 85

input: What viability at 28.5 h, 10 µM value was documented for this compound, OC(COCc1ccc(Cl)cc1)CN1CCN(C(c2ccccc2)c2ccccc2)CC1 (centres unmarked) [CBK074857C] ?
output: 86.3

input: What viability at 28.5 h, 10 µM value was documented for this compound, N#CCCCN1C(=O)C(O)(CC(=O)c2ccccn2)c2ccccc21 (centres unmarked) ?
output: 121

input: What viability at 28.5 h, 10 µM value was documented for this compound, CCCn1nccc1S(=O)(=O)NCCN1CCCCC1CO (centres unmarked) ?
output: 82

input: What viability at 28.5 h, 10 µM value was documented for this compound, CCc1c(C)nc2c(NC(C)=O)cccc2c1SCCC(=O)O [CBK159594T] ?
output: 106
